# literature pull: UniProtKB P18031 IC50
# Sequence (P18031 whole entry): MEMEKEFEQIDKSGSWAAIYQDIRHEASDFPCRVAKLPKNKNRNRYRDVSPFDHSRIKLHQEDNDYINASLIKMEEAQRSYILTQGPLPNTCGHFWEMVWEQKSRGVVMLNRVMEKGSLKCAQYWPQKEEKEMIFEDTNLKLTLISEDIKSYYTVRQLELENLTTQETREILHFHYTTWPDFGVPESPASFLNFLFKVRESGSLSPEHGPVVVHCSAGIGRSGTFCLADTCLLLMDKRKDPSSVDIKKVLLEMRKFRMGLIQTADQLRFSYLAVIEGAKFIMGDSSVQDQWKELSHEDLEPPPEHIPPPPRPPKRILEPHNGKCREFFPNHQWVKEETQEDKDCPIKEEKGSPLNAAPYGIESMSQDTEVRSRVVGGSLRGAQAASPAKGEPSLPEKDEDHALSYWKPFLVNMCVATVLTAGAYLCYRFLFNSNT
metric: IC50 (µM)

INSERT INTO results (molecule, assay_target, metric, cmp, observed_result) VALUES
  ('C/C(=C/C(C)=C/c1nc([C@H](Cc2ccc(OCc3ccccc3)cc2)NC(=O)C2CCCCC2)sc1-c1ccccc1)C(=O)O', 'UniProtKB P18031', 'IC50', '=', 10.9),
  ('C[C@H]1CC[C@H]2C(C)(C)CCC[C@]2(C)[C@H]1CC(CCc1ccccc1)C(C(=O)O)C(=O)O (stereo not given in full)', 'UniProtKB P18031', 'IC50', '=', 21),
  ('CCO[C@H]1CC[C@]2(C)[C@H]3CC=C4[C@@H]5CC(C)(C)CC[C@]5(C(=O)O)CC[C@@]4(C)[C@]3(C)CC[C@H]2C1(C)C', 'UniProtKB P18031', 'IC50', '=', 5.3),
  ('O=S(=O)(O)OC(CCc1ccccc1)COCc1cccc2ccccc12 (stereo not given)', 'UniProtKB P18031', 'IC50', '>', 100),
  ('CC(C)C[C@H](c1c(O)c(C=O)c(O)c(C=O)c1O)[C@H]1CC[C@@H](C)[C@@]2(C)C1=CC[C@@H]1[C@H]2C1(C)C', 'UniProtKB P18031', 'IC50', '=', 1.3);
